- Assay Comment: chemical genetic growth profiling, strain panel (AID 1159580);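 note: tested at 20 µM; growth read once vehicle control cultures reached saturation at 30 °C; 1 = growth at the plate median or of vehicle wells; lower values mean less growth of the strain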
- Conditions Used: S. cerevisiae deletion strains, growth OD, locus YFR010W, strain ubp6
The whole screen tested about 5,500 compounds, of which about 2,000 (36%) were called active. Not shown: some 18% with an inconclusive outcome. Cut-off read from the data, not from the text of the source: active = normalized growth mostly below about 0.91 (no sharp cut-off); inconclusive = no clear call, values can overlap the other calls; inactive = mostly above about 0.92. This is one part of the list.
Write down one outcome, taken from active, inactive

Answered examples (5):
>  <Compound>
COc1ccc(-c2oc3ccccc3c(=O)c2O)cc1OC

>  <Assigned Class>
active

$$$$
>  <Compound>
CC(=O)OCC1=C(C(=O)O)N2C(=O)[C@@H](NC(=O)CCCC(N)C(=O)O)C2SC1 (stereo partly drawn)

>  <Assigned Class>
inactive

$$$$
>  <Compound>
NC(=O)NO

>  <Assigned Class>
inactive

$$$$
>  <Compound>
O=C1c2ccccc2C(=O)C1c1ccccc1

>  <Assigned Class>
inactive

$$$$
>  <Compound>
CC(=O)[C@@]1(O)CCC2C3CCC4=CC(=O)CC[C@]4(C)C3CC[C@@]21C (stereo partly drawn)

>  <Assigned Class>
inactive

$$$$

(Q) Please indicate how the test categorized `CC(=O)NO` .
(A) inactive

(Q) Can you check `COc1cc(-c2coc3cc(O[C@@H]4O[C@H](CO)[C@@H](O)[C@H](O)[C@H]4O)c(OC)c(O)c3c2=O)cc(O)c1OC` next?
(A) inactive

----------
- Assay Comment: chemical genetic growth profiling, strain panel (AID 1159580)
- Conditions Used: S. cerevisiae deletion strains, growth OD, locus YNL271C, strain bni1, stronger effect = lower value
Screen size: about 5,500 compounds; about 2,000 (36%) were called active. Inconclusive results (about 18%) are left out. The list shows a part of the results.
Observation Type: normalized growth
Give bare numbers.

The following compounds have reported results that may help.
>  <Compound>
COc1cc(-c2coc3cc(O[C@@H]4O[C@H](CO)[C@@H](O)[C@H](O)[C@H]4O)c(OC)c(O)c3c2=O)cc(O)c1OC

>  <normalized growth>
0.978

$$$$
>  <Compound>
COc1cc2c(cc1OC)-c1c(oc3c4c(ccc3c1=O)OC(C(C)C)C4)CO2 (stereo not given)

>  <normalized growth>
0.958

$$$$
>  <Compound>
NC[C@H]1O[C@H](O[C@H]2[C@H](O)[C@@H](O[C@H]3O[C@H](CO)[C@@H](O)[C@H](N)[C@H]3O)[C@H](N)C[C@@H]2N)[C@H](N)C[C@@H]1O

>  <normalized growth>
1

$$$$
>  <Compound>
CC(=O)OCC(=O)[C@@]1(O)CCC2C3CC[C@@H]4C[C@H](OC(C)=O)CC[C@]4(C)C3C(=O)C[C@@]21C (stereo not given in full)

>  <normalized growth>
1.01

$$$$
>  <Compound>
COc1cnc(NS(=O)(=O)c2ccc(N)cc2)nc1

>  <normalized growth>
0.979

$$$$

Batch: normalized growth for all items listed.
1. CC1(C)C(=O)[C@@H]2C[C@@]3(O)C4=CC(=O)O[C@@H](c5ccoc5)[C@]4(C)CCC3[C@@](C)(C2=O)[C@H]1CC(=O)O (stereo not given in full)
2. CCOc1ccc(C(=O)c2cc(O)c(OC)c(OC)c2O)cc1
3. COc1ccc2c(c1OC)OC[C@@H](c1ccc(OC)c(OC)c1OC)C2
4. CNC(Cc1c[nH]c2ccccc12)C(=O)O (stereo not given)

(A)
1
1.01
0.999
0.994

I'm hoping you can list normalized growth for every compound here, please.
1. C=C(C)[C@@H]1CC[C@]2(CO)CC[C@]3(C)[C@H](CCC4[C@@]5(C)CC[C@H](O)C(C)(C)C5CC[C@]43C)C12 (stereo not given in full)
2. COc1cc2cc3c4cc(OC)c(OC)cc4cc[n+]3c(C)c2cc1OC
3. CC(=O)O[C@H]1CC[C@]2(C)C3CC(=O)[C@]4(C)C(C(C)=O)=CCC4C3CC[C@H]2C1 (stereo not given in full)

(A)
0.976
1.02
1.01

Hi, could you look up normalized growth for each item in my list?
1. CC(NCCC(c1ccccc1)c1ccccc1)c1ccccc1 (stereo not given)
2. CN[C@@H]1[C@@H](O[C@H]2O[C@H](CO)[C@@H](N)[C@H](O)[C@H]2O)O[C@H]2C[C@@H](N)[C@H](O[C@H]3[C@H](O)[C@@H](O)[C@H](N)C[C@@H]3N)O[C@@H]2[C@@H]1O

(A)
1: 0.99; 2: 0.997

Take each entry in turn and give its normalized growth.
1. CCOc1ccc(C(=O)c2ccc(O)c(O)c2O)cc1
2. COC(=O)C[C@H]1C(C)(C)[C@@H](O)[C@@H]2CC3=C4C=C(OC)O[C@@H](c5ccoc5)[C@]4(C)CCC3[C@@]1(C)C2=O (stereo not given in full)
3. CC(=O)N[C@@H](Cc1c[nH]c2ccccc12)C(=O)O
4. NC(N)=NC(N)=Nc1ccccc1
5. CCCCCCCCCCCCCCCCCCOCC(O)CO (stereo not given)

(A)
1: 0.911; 2: 0.985; 3: 1.03; 4: 0.994; 5: 1

----------
- Assay Comment: chemical genetic growth profiling, strain panel (AID 1159580);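 note: tested at 20 µM; growth read once vehicle control cultures reached saturation at 30 °C; 1 = growth at the plate median or of vehicle wells; lower values mean less growth of the strain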
- Conditions Used: S. cerevisiae deletion strains, growth OD, locus YIL073C, strain SPO22, stronger effect = lower value
The campaign covered roughly 5,500 compounds. About 2,000 (36%) were called active. Inconclusive results (about 18%) are left out. The list shows a part of the results.
Observation Type: normalized growth
Numbers only.

Illustrative cases are given below, each with its answer.
>  <Compound>
Cc1onc(-c2c(Cl)cccc2Cl)c1C(=O)N[C@@H]1C(=O)N2[C@@H]1SC(C)(C)[C@@H]2C(=O)O

>  <Meas Value>
0.988

$$$$
>  <Compound>
COc1cnc(NS(=O)(=O)c2ccc(N)cc2)nc1

>  <Meas Value>
0.999

$$$$
>  <Compound>
COc1c2ccoc2cc2oc(C)cc(=O)c12

>  <Meas Value>
0.936

$$$$
>  <Compound>
CC(N)C(O)c1ccc(O)c(O)c1 (stereo unspecified)

>  <Meas Value>
0.958

$$$$
>  <Compound>
COc1c2c(cc3c1OCO3)C13C=C[C@H](OC)CC1N(C2)CC3O (stereo partly specified)

>  <Meas Value>
0.94

$$$$

(Q) Give its normalized growth value. Item: `COc1cccc(OC)c1C(=O)N[C@@H]1C(=O)N2[C@@H]1SC(C)(C)[C@@H]2C(=O)O`
(A) 0.991

----------
- Assay Comment: chemical genetic growth profiling, strain panel (AID 1159580);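 note: tested at 20 µM; growth read once vehicle control cultures reached saturation at 30 °C; 1 = growth at the plate median or of vehicle wells; lower values mean less growth of the strain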
- Conditions Used: S. cerevisiae deletion strains, growth OD, locus YHR079C, strain IRE1 (second series), stronger effect = lower value
Screen size: about 5,500 compounds; about 2,000 (36%) were called active. Not shown: some 18% with an inconclusive outcome. This is one part of the list.
Consider the following compounds; for each one, report its normalized growth.
Give bare numbers.

The examples below pair each entry with its known result.
>  <Compound>
COc1ccc(C(=O)O)c(O)c1OC

>  <normalized growth>
0.986

$$$$
>  <Compound>
Cc1ccc(N(CC2=NCCN2)c2cccc(O)c2)cc1

>  <normalized growth>
0.99

$$$$

Now consider the entry below.
(Q) Returns the measured normalized growth for the input compound. Input: C#CC1(O)CCC2C3CCC4=CC(=O)CCC4(C)C3CCC21C (stereo not drawn)
(A) 0.983

----------
Please provide measured normalized growth for the entries that follow.
- Assay Comment: chemical genetic growth profiling, strain panel (AID 1159580);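 note: tested at 20 µM; growth read once vehicle control cultures reached saturation at 30 °C; 1 = growth at the plate median or of vehicle wells; lower values mean less growth of the strain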
- Conditions Used: S. cerevisiae deletion strains, growth OD, locus YEL003W, strain gim4, stronger effect = lower value
Among all 5,500 compounds or so, about 2,000 (36%) were called active. About 18% were inconclusive and are not listed. This is one part of the list.

>  <Molecule>
CO[C@H]1C[C@H](O[C@H]2[C@H](C)[C@@H](OC3O[C@H](C)C[C@H](N(C)C)[C@H]3OC(C)=O)[C@@H](C)C[C@]3(CO3)C(=O)[C@H](C)[C@@H](OC(C)=O)[C@@H](C)[C@@H](C)OC(=O)[C@@H]2C)O[C@@H](C)[C@@H]1OC(C)=O (some centres not stated)

>  <normalized growth>
1 (inactive)

$$$$
>  <Molecule>
CC(=O)[O][Hg][c]1ccccc1

>  <normalized growth>
0.0567 (active)

$$$$
>  <Molecule>
COc1ccc(C(=O)c2ccccc2)c(O)c1O

>  <normalized growth>
0.96 (inactive)

$$$$
>  <Molecule>
NCCNCCNCCN

>  <normalized growth>
0.999 (inactive)

$$$$
>  <Molecule>
CNS(=O)(=O)c1ccc(NC(=O)c2ccccc2C(=O)O)cc1

>  <normalized growth>
0.994 (inactive)

$$$$

Dear colleague, could you please provide normalized growth for the molecules listed below?
1. COc1c2ccoc2cc2oc(C)cc(=O)c12
2. C#CC1(O)CCC2C3CCC4=CC(=O)CCC4(C)C3CCC21C (configuration not stated)
3. Cc1c(NC(=O)c2cccnc2)c(=O)n(-c2ccccc2)n1C
4. CCOc1ccc(C(=O)c2cc(O)c(OC)c(OC)c2O)cc1
5. CNCC[C@@H](Oc1ccccc1)c1ccccc1
6. CC(=O)Oc1ccccc1C(=O)O
7. NC(=O)N1c2ccccc2C=Cc2ccccc21
8. COC(=O)C[C@H]1C(C)(C)[C@@H](O)[C@@H]2CC3=C4C=C(OC)O[C@@H](c5ccoc5)[C@]4(C)CCC3[C@@]1(C)C2=O (some centres not stated)

(A)
["1 (inactive)", "0.976 (inactive)", "1 (inactive)", "0.986 (inactive)", "0.973 (inactive)", "1.01 (inactive)", "1.02 (inactive)", "0.994 (inactive)"]

I have 4 molecules here; please give me normalized growth for each one.
1. CC(=O)OCC(=O)[C@@]1(O)CCC2C3CCC4=CC(=O)CC[C@]4(C)C3[C@@H](O)C[C@@]21C (some centres not stated)
2. COc1ccc(C(=O)c2ccc(O)cc2)c(O)c1O
3. CC(=O)[C@@]1(O)CCC2C3CCC4=CC(=O)CC[C@]4(C)C3CC[C@@]21C (some centres not stated)
4. C#C[C@]1(O)CCC2C3CCC4=Cc5oncc5C[C@]4(C)C3CC[C@@]21C (some centres not stated)

(A)
1. 1.01 (inactive)
2. 0.962 (inactive)
3. 0.999 (inactive)
4. 0.932 (inactive)
